System: ZR-75-1 human mammary cancer cells
test_method_notes: MTT test, proliferation of ZR-75-1
Format: cell-based
measurement_context: Homo sapiens; ZR-75-1, 10^-6 M, 72 h, control = 100%; read-out: level of proliferation
Item-by-item account of activity at 1 µM
The response must be a number in % with no trailing unit.

Consider the worked cases shown below.
IN: Looking for the measured activity at 1 µM of C/C(=C/c1ccc2c(c1)C(C)(C)CCS2(=O)=O)c1ccc(-c2nnn[nH]2)cc1 , can you help?
OUT: 97.3

IN: What does the data say about its activity at 1 µM? Entry: C/C(=C/c1ccc2c(c1)C(C)(C)CCS2)c1ccc(C(=O)O)cc1
OUT: 115

IN: Quick check: activity at 1 µM of C/C(=C/c1ccc2c(c1)C(C)(C)CCC2(C)C)c1ccc(-c2nnn[nH]2)cc1 ?
OUT: 39.9

Others:
IN: What value of measured activity at 1 µM is listed for CC(C=C/C=C(C)\C=C\C1=C(C)CCCC1(C)C)=CC(=O)O [CB13407, 9-cis retinoic acid, reference compound] ?
OUT: 130

IN: Recorded activity at 1 µM for C/C(=C\c1ccc2c(c1)C(C)(C)CCS2)c1ccc(C(=O)O)cc1 , please?
OUT: 126

IN: Using the record for CC1=C(/C=C/C(C)=C/C=C/C(C)=C\C(=O)O)C(C)(C)CCC1 [CB81808, 13-cis retinoic acid, reference compound] , report its activity at 1 µM.
OUT: 55

IN: Report activity at 1 µM for COc1cc2c(cc1/C(C)=C/c1ccc(C(=O)O)cc1)C(C)(C)CCS2(=O)=O please.
OUT: 113

IN: Look up activity at 1 µM for this compound: C=C(c1ccc(C(=O)Nc2ccc(O)cc2)cc1)c1cc2c(cc1C)C(C)(C)CCC2(C)C
OUT: 93.4

All values here come from patent US6265423A.
